Provide the reported IC50 of each item.
# test.system: IRAK4 (Homo sapiens, UniProt Q9NWZ3)
# Sequence (Q9NWZ3 whole entry): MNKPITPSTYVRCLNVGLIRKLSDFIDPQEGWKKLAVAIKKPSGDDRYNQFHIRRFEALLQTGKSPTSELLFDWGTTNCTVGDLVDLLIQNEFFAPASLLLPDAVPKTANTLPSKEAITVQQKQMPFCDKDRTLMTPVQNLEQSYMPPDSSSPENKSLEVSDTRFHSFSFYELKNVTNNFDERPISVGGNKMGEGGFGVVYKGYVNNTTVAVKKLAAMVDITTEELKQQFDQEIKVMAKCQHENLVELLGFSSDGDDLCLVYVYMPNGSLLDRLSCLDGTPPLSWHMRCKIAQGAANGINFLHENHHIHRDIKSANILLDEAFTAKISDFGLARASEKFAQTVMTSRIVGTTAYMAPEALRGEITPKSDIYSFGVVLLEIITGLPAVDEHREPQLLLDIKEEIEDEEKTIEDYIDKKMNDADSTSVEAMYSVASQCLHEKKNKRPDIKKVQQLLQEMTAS
# experiment.description: RBC HotSpot Kinase Assay, IRAK4
# Type: biochemical
# Design: purchased Reaction Biology (RBC HotSpot)
# condition.description: isolated kinase enzyme, 33P-ATP, P81 filter-binding

Value of measured IC50 for the entry COc1cc2ncc(-c3nc(N[C@H]4CNCC[C@@H]4F)ncc3F)n2nc1C1CCCC1 [Compound 63a] : < 500 pM

The reported value for COc1cc2ncc(-c3nc(N[C@H]4CNCC[C@@H]4F)ncc3F)n2nc1C1CCC1 [Compound 54a] in terms of IC50 is < 500 pM

Quick note, IC50 for COc1cc2ncc(-c3nc(N[C@H]4CNCC[C@@H]4F)ncc3F)n2nc1[C@H]1C[C@@H](O)C1 [Compound 126a] landed at < 500 pM

###

# Test system: MOLM14 F691L cells
# experiment.description: MOLM14 F691L cell viability assay (Cell Titer Glo)
# Format: cell-based
# condition.description: Homo sapiens, MOLM-14; cell viability, Cell Titer Glo, 48 hours; read-out: MOLM14 F691L IC50
# Procedure: Both cell lines have activated FLT3 receptors, each of which carry additional resistance mutations in the kinase domain (D835Y and F691L, respectively). For viability/cytotoxicity assessments, cells were seeded into 1536-well white polystyrene tissue culture-treated Greiner plates using a Multidrop Combi dispenser (ThermoFisher), in final volume 5 μL of growth media per well, at a density of 1000 cells per well. […]
readout.label: pIC50
// pIC50 is dimensionless: -log10 of concentration (M)

Lookup result for COc1cc2ncc(-c3nc(N[C@@H]4CCCNC4)ncc3F)n2nc1C1CCCCC1 [Compound 65a] ; measured pIC50: 7.74

Per the records, this compound ( c1ncc(-c2cnc3cc(OC4CC4)c(C4CC4)nn23)nc1N[C@@H]1CCCNC1 [Compound 15a] ) has pIC50 equal to 6.95

Recorded result, COc1cc2ncc(-c3ccnc(N[C@H]4CNCC[C@@H]4F)n3)n2nc1C12CC(C1)C2 [Compound 91a] , pIC50: 6.55

Please fill in: pIC50 reported for COc1cc2ncc(-c3nc(N[C@H]4CNCC[C@@H]4F)ncc3F)n2nc1N1CCCC1=O [Compound 108a] = 6.10

Sure, the documented pIC50 for COc1cc2ncc(-c3ccnc(N[C@H]4CNC[C@@H]4F)n3)n2nc1C1CCCC1 [Compound 83a] is 6.95

Value of pIC50 reported for the compound COc1cc2ncc(-c3nc(N[C@H]4CNCC[C@@H]4F)ncc3Cl)n2nc1C1CC1 [Compound 103a] is 6.70

Record COc1cc2ncc(-c3ccnc(N[C@H]4CNCC[C@@H]4F)n3)n2nc1C1CCCCC1 [Compound 88a] , field pIC50: 6.75

The recorded pIC50 for entry COc1cc2ncc(-c3nc(N[C@H]4CNC[C@@H]4F)ncc3F)n2nc1N1CCCC1=O [Compound 107a] equals 5.95

pIC50 for COc1cc2ncc(-c3nc(N[C@H]4CNC[C@@H]4F)ncc3F)n2nc1C1CCCCC1 [Compound 64a] is 7.24

###

# test.system: FLT3 ITD, F691L (Homo sapiens, UniProt P36888, F691L, form not given)
# Construct: fused on or other part: DNA tag for qPCR detection (kinase-tagged T7 phage, or made in HEK-293 cells and then tagged with DNA)
# experiment.description: DiscoverX KINOMEscan competition binding assay, FLT3 ITD, F691L
# condition.description: 11-point 3-fold dilution
# Procedure: […]. […] As a result, the data report thermodynamic interaction affinities (Kd values), rather than IC50 values that are dependent on ATP concentrations. […] Compounds that directly or indirectly prevent kinase binding to the immobilized ligand reduce the amount of kinase captured on the solid support, which is detected using an ultra-sensitive qPCR method. […] Binding constants (Kds) were calculated with a standard dose-response curve using the Hill equation. […]
pKd: −log10 of the molar value.
readout.label: pKd

# pKd (compound: COc1cc2ncc(-c3nc(N[C@H]4CNCC[C@@H]4F)ncc3F)n2nc1C1COC1 [Compound 92a] ) is > 9.77

Documented pKd of "COc1cc2ncc(-c3nc(N[C@H]4CNCC[C@@H]4F)ncc3F)n2nc1C1CC1" : > 9.77

GET /value?item= "FC(F)COc1cc2ncc(-c3ccnc(N[C@H]4CNCC[C@@H]4F)n3)n2nc1C1CC1" &field=pKd returns > 9.77

Record COc1cc2ncc(-c3nc(N[C@H]4CNCC[C@@H]4F)ncc3F)n2nc1N1CCCS1(=O)=O [Compound 112a] , field pKd: > 9.77
